Test system: double-stranded DNA oligonucleotide
Assay: DNA binding by ESI-MS
Parameters: key: MetalDepend.: all ligand-DNA complex ions also contained a metal ion.; None: no ligand-DNA complex ions observed.; MetalIndepend.: ligand-DNA and ligand-DNA-metal ion complex ions observed
Conditions: ligand-DNA complex ions, presence or absence of added NiCl2
observable: DNA-Binding ESI-MS

1) COC(=O)c1cccc2oc(-c3ccccc3O)nc12    MetalDepend.^d
2) O=C(O)c1cccc2oc(-c3ccccc3OCc3ccccc3)nc12    MetalIndepend.^f
3) COC(=O)c1cccc2oc(-c3cccc4oc(-c5ccccc5O)nc34)nc12    MetalDepend.^d
4) O=C(O)c1cn(C2CC2)c2cc(N3CCNCC3)c(F)cc2c1=O    MetalIndepend.^f

====

Test system: BT-20
Experiment: alamarBlue cytotoxicity assay, BT-20
Assay type: cell-based
Conditions: Homo sapiens; BT-20, alamarBlue
observable: pIC50
In simple prose, pIC50 is minus the logarithm base ten of a concentration in moles per litre.

Exercise: Param item = COC(=O)c1cccc2oc(-c3cccc4oc(-c5ccccc5O)nc34)nc12 ; retrieve measured pIC50.
Key: 6.77
